Source of measurements: patent US20200055939A1

- STUDY_TARGET: T1, huMICA*002 alpha 3-his (human)
- T1 construct: whole construct entry: GS, alpha 3 domain, GNS, His8; also called MICA002.His; MICA*002 alpha3 construct
- T1 chain: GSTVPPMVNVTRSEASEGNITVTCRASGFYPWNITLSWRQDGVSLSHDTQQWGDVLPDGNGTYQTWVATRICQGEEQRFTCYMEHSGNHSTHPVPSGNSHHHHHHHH
- ASSAY_COMMENT: SPR, Biacore 8K, antibody on Protein A chip
pKd: −log10 of the molar value.
EXPERIMENTAL_ENDPOINT: pKd

1D5v14 (antibody, IgG1, V domains shown, humanized variant of 1D5; also called 1D5v14 second data point) VH: EVQLVQSGAEVKKPGASVKVSCKASGYAFTSQNIYWVRQAPGQGLEWMGYIEPYNVVPMYNPKFKGRVTMTTDTSTSTAYMELRSLRSDDTAVYYCARSGSSNFDYWGQGTLVTVSS VL: DIQMTQSPSSLSASVGDRVTITCSASSSISSHYLHWYQQKPGKAPKLLIYRTSNLASGVPSRFSGSGSGTDFTLTISSLQPEDFATYYCQQGSSLPLTFGQGTKVEIK	8.79
15F11v2 (antibody, IgG1, V domains shown, humanized variant of 15F11) VH: EIQLVQSGAEVKKPGASVKVSCKPSGYAFTSNNIYWVRQAPGQGLEWIGYIDPYIGRIIYNQQFKDRATLTVDKSTSTAYLELSSLRSEDTAVYYCSRSGERSNFDYWGQGTLVTVSS VL: EIVLTQSPATLSLSPGERATLSCSASSSISSNYLHWYQQKPGQAPRLLIYRTSNLASGIPARFSGSGSGTDFTLTISSLEPEDFAVYYCQQGGSLPLTFGQGTKVEIK	8.30
1D5v8 (antibody, IgG1, V domains shown, humanized variant of 1D5) VH: EVQLVQSGAEVKKPGASVKVSCKASGYAFTSQNIYWVRQAPGQGLEWIGYIEPYNVVPMYNPKFKGRVTITRDTSTSTAYLELSSLRSEDTAVYYCARSGSSNFDYWGQGTLVTVSS VL: EIVLTQSPDFQSVTPKEKVTITCSASSSISSHYLHWYQQKPDQSPKLLIKRTSNLASGVPSRFSGSGSGTDFTLTINSLEAEDAATYYCQQGSSLPLTFGQGTKVEIK	7.95
